# credit: PubChem BioAssay AID2060504

Test system: 636577-100-R-J1-PDC complex spheroid viability;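 also: viability read after seven days of drug exposure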
Assay: Anticancer human tumor 636577-100-R-J1-PDC patient-derived endometrial adenocarcinoma cell line growth inhibition [GQUAD]
Conditions: curve of first compound; second compound 0.316 µM
Listing of recorded IC50 by entry.

COc1ccc([C@@H](O)c2cc(-c3ncnc4cc(N5CCOCC5)ccc34)c(F)cc2Cl)nn1 + Cc1cnc(CNC(=O)c2c(=O)c3ccc(N4CCCN(C)CC4)nc3n3c2sc2ccccc23)cn1	< 31.6 nM

Next item in the queue.
QUERY: # lookup: IC50 of CC(C)(O)C1CCC(Nc2ccc3ncc(-c4cccc(C(F)(F)F)c4)n3n2)CC1 (stereo unspecified) + Cc1cnc(CNC(=O)c2c(=O)c3ccc(N4CCCN(C)CC4)nc3n3c2sc2ccccc23)cn1
RESULT: < 31.6 nM
